src = patent US20070077617

- test system: fusion protein PRI
- Sequence (chain, as listed by the source): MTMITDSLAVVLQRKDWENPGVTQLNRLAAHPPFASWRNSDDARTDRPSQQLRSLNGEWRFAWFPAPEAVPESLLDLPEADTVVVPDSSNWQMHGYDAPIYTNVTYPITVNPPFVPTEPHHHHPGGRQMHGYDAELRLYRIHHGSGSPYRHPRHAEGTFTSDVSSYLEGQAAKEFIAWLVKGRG
observed property: relative cleavage efficiency

[
  {
    "protein": "OmpT protease (wild-type, E. coli mature OmpT protease) (protein) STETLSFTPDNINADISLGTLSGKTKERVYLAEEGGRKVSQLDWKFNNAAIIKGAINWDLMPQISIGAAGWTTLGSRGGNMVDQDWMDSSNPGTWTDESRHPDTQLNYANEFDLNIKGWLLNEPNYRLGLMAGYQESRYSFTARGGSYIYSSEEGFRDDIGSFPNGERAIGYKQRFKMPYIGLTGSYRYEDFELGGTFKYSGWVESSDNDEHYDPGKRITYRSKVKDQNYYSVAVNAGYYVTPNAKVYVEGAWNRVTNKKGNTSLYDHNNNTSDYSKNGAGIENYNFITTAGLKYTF",
    "value": "< 3%"
  }
]
